- MEASURED TARGET: IL16_1, Q14005
- Sequence (Q14005 210-306): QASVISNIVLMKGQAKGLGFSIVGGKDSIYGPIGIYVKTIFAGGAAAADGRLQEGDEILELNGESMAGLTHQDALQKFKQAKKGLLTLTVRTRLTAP
- EXPERIMENT NOTES: holdup assay
- Parameters: key: below the threshold = too weak to quantify, mostly under pKd 3.1 to 4
- MEASUREMENT CONTEXT: plain residues with an end cap or a label only (N-terminal biotin on a linker: ado-ado)
OBSERVATION TYPE: pKd

Worked set:
INSERT INTO assay_data (binder, result) VALUES
  ('TNSKQGETTV [FZD1, Q9UP38]', 'below the threshold'),
  ('IKLETKKTKL [SLC15A2, Q16348]', 'below the threshold'),
  ('AHGSTRDQSI [KCNB1, Q14721]', 'below the threshold'),
  ('DYSNLRETDI [ADRA1D, P25100]', 3.59),
  ('KIEDVEITLV [FCHSD2, O94868]', 3.48),
  ('SGDGKTSVWI [GJC1, P36383]', 'below the threshold');

[ask] Consider the binder PSDSVGKDVF [EGLN1, Q9GZT9] . State its measured pKd.
[reply] below the threshold

[ask] Consider the binder NKSEPFLTWL [WWTR1, Q9GZV5] . State its measured pKd.
[reply] below the threshold
